Where do the numbers come from? From the OligoGym collection.

remaining target (mRNA or protein) (fraction of control) values for the sequences below.
# assayed_system: RHOB
# cond: ASO; also: test concentration or dose not given here
These antisense oligonucleotides have a phosphorothioate backbone; sugars and methylation of C are not fully specified.
Could you respond with only the numeric value?

monomer_sequence	result_number
GTTGATGCAGCCGTTCTG	0.93

What does the record list as remaining target (mRNA or protein) (fraction of control) for GTTCCTGCTTCATGCGGG ?
0.73

====

# assayed_system: AKT2
# cond: ASO
These antisense oligonucleotides have a phosphorothioate backbone; sugars and methylation of C are not fully specified.
// boundary case: remaining target (mRNA or protein) (fraction of control) equal to 0.2 maps to not met; strictly smaller maps to met

Here's what some known entries look like.
monomer_sequence	assayed_system	label_value
TGTGATTGTGATGGACTG	AKT2	not met
TCGGTGACTGTGTGAGCG	AKT2	not met
CCAGCCTTCTTTGATGAC	AKT2	not met

Below 0.2 on remaining target (mRNA or protein) (fraction of control)? Entry CAGTCGTGGAGGAGTCAC
not met
